Molecular target: cyclooxygenase-2 (Mus musculus)
Construct: Peritoneal fluid suspended with macrophages was extracted from a mouse peritoneal cavity; endogenous in cells; host or cells: primary mouse peritoneal macrophages, pretreated with 500 uM aspirin and stimulated with 10 ug/ml LPS
Sequence (Q05769 18-604): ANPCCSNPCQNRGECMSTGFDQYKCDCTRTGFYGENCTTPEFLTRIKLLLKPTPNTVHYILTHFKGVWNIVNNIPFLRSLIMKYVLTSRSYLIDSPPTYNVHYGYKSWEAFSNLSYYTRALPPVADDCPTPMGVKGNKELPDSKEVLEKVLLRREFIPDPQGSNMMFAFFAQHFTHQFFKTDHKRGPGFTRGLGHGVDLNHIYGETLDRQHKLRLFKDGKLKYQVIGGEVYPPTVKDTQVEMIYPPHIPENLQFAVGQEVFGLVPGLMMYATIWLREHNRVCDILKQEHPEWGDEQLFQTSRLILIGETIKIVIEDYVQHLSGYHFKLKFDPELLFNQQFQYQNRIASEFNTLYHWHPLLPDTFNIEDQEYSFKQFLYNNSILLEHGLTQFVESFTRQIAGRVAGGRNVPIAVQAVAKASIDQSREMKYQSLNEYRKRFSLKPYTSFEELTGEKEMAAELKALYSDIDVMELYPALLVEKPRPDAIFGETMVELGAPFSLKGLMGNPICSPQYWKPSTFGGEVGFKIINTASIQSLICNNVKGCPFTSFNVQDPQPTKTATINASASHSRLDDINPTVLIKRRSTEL
Assay: Inhibition of cyclooxygenase-2 in aspirin-pretreated, LPS-stimulated mouse peritoneal macrophages (PGE2 ELISA)
Assay type: cell-based
Conditions: 100 nM
Method: Second, the cyclooxygenase-2 was examined through the following procedure. Peritoneal fluid suspended with macrophages was extracted from a mouse peritoneal cavity and centrifuged at 4° C., 1,000 rpm for 2 minutes. […] Then, the cell number was calculated with the hemocytometer and adjusted to reach 1×10^6 cells/ml of cell concentration in the final cell suspension. […]
ASSAY_ENDPOINT: Inhibitory effects of cyclooxygenase (COX), COX-2 (% inhibition)

Recorded Inhibitory effects of cyclooxygenase (COX), COX-2, per entry:
CCO/N=C1\CCc2ccccc2C1=Cc1ccc(S(C)(=O)=O)cc1 58.8
CS(=O)(=O)c1ccc(C=C2/C(=N/OC(=O)COCc3ccccc3)CCc3ccccc32)cc1 25.5
CS(=O)(=O)c1ccc(C=C2/C(=N/OCc3ccccc3)CCc3ccccc32)cc1 55.4
Cn1nc2c(c1-c1ccc(S(C)(=O)=O)cc1)-c1ccccc1CC2 31.8
CO/N=C1\CCc2ccccc2C1=Cc1ccc(S(C)(=O)=O)cc1 69.9

I: CS(=O)(=O)c1ccc(-c2[nH]nc3c2-c2ccccc2CC3)cc1
II: CC(=O)O/N=C1\CCc2ccccc2C1=Cc1ccc(S(C)(=O)=O)cc1
In: // max by Inhibitory effects of cyclooxygenase (COX), COX-2 over [ I , II ] Return value: the label identifying the chosen record.
Out: I

1: CS(=O)(=O)c1ccc(-c2onc3c2-c2ccccc2CC3)cc1
2: CS(=O)(=O)c1ccc(C=C2/C(=N/O)CCc3ccccc32)cc1
In: // max by Inhibitory effects of cyclooxygenase (COX), COX-2 over [ 1 , 2 ] Return value: the label identifying the chosen record.
Out: 1
(1: 70.6 % inhibition, 2: 20.7 % inhibition)

====

target: cyclooxygenase-2 (Mus musculus); construct: Peritoneal fluid suspended with macrophages was extracted from a mouse peritoneal cavity; endogenous in cells; host or cells: primary mouse peritoneal macrophages, pretreated with 500 uM aspirin and stimulated with 10 ug/ml LPS; test: Inhibition of cyclooxygenase-2 in aspirin-pretreated, LPS-stimulated mouse peritoneal macrophages (PGE2 ELISA); format: cell-based; conditions: 300 nM
ASSAY_ENDPOINT: Inhibitory effects of cyclooxygenase (COX), COX-2 (% inhibition)

Recorded Inhibitory effects of cyclooxygenase (COX), COX-2, per entry:
COMPOUND	NUMERIC_VALUE
CS(=O)(=O)c1ccc(C=C2/C(=N/OC(=O)COCc3ccccc3)CCc3ccccc32)cc1 [Example 9]	30.1
CC(=O)O/N=C1\CCc2ccccc2C1=Cc1ccc(S(C)(=O)=O)cc1 [Example 8]	29.6
CS(=O)(=O)c1ccc(C=C2/C(=N/OCc3ccccc3)CCc3ccccc32)cc1 [Example 5]	61.4

1: CO/N=C1\CCc2ccccc2C1=Cc1ccc(S(C)(=O)=O)cc1 [Example 4]
2: CS(=O)(=O)c1ccc(-c2[nH]nc3c2-c2ccccc2CC3)cc1 [Example 6]
In: When the recorded Inhibitory effects of cyclooxygenase (COX), COX-2 values are compared, which is smaller: that of 1 or that of 2 ? Return value: the label identifying the chosen record.
Out: 2
(2: 54.9 % inhibition, 1: 81.5 % inhibition)

Data origin, for the record: patent US6768019B2
